Test system: PLK1
Condition Notes: Compound Concentration (nM):1000;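 note: KINOMEscan scanMAX binding as percent activity remaining versus control; lower means stronger binding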
Outcome Measure: Percent Control (%)
Dear colleague, please return just the value in %, with no unit written.

These solved cases illustrate the format of a correct answer.
                                   compound  outcome_measure  result_number
0  Cc1cc(O)cc(C)c1/C=C/c1cncc(C(N)=O)c1 [GW435821X]  Percent Control            100
1  CCc1ccc(Oc2nccc(-c3c(-c4ccc(F)cc4)ncn3C3CCNCC3)n2)cc1  Percent Control             98
2  COc1cc(C=NNc2ncnc3c2cnn3-c2ccccc2)ccc1O [GW513184X]  Percent Control            100
3  NS(=O)(=O)c1ccc(N/N=C2\C(=O)Nc3ccc(C(=O)NCCc4c[nH]cn4)cc32)cc1 [GW300660X]  Percent Control            100

Moving on to the next compound.
IN: GET /values?readout=Percent Control&item= NS(=O)(=O)c1ccc(Nc2ncc(-c3ccccc3)o2)cc1 [GW572399X]
OUT: 100

###

Tested on: GRK7
Condition Notes: Compound Concentration (nM):1000
Outcome Measure: Percent Control (%)
Dear colleague, please return just the value in %, with no unit written.

These solved cases illustrate the format of a correct answer.
In [3]: df
Out[3]:
                                   molecule  outcome_measure  result_units  result_number
0  CC(C)COC(=O)c1ccc2c(c1)/C(=C/Nc1ccc(S(N)(=O)=O)cc1)C(=O)N2 [GW416981X]  Percent Control             %            100
1  O=C(Nc1n[nH]c2nc(-c3ccc(O)cc3)c(Br)cc12)C1CC1  Percent Control             %            100

IN: GET /values?readout=Percent Control&item= NS(=O)(=O)c1ccc(N/N=C2\C(=O)Nc3ccc(Cl)cc32)cc1 [GW280670X]
OUT: 100

IN: GET /values?readout=Percent Control&item= CCc1ccc(Oc2nccc(-c3c(-c4ccc(F)cc4)ncn3C3CCNCC3)n2)cc1
OUT: 100

IN: GET /values?readout=Percent Control&item= CCn1c(-c2nonc2N)nc2c(C#CC(C)(C)O)nc(OCCNC)cc21.Cl
OUT: 69

IN: GET /values?readout=Percent Control&item= Cl.O=C(O[C@H]1CN[C@H](C#Cc2cc3ncnc(Nc4ccc5c(cnn5Cc5ccccc5)c4)c3s2)C1)N1CCOCC1 [GSK200398A]
OUT: 84

###

This listing pairs compounds with measured Percent Control.
Test system: TNNI3K
Condition Notes: Compound Concentration (nM):1000
Dear colleague, please return just the value in %, with no unit written.

These solved cases illustrate the format of a correct answer.
>>> df
                                   compound  outcome_measure  result_units  result_number
0  CN1CCN(C(=O)c2ccc(NC(=O)Nc3ccc(N(C)c4ccnc(Nc5ccc(CS(C)(=O)=O)cc5)n4)cc3)cc2)CC1.Cl [GW830263A]  Percent Control             %             92
1  COc1ccc2c(-c3ccnc(Nc4cccc(OC(F)(F)F)c4)n3)cnn2n1 [GW810372X]  Percent Control             %            100
2  NS(=O)(=O)c1ccc(Nc2ncc(-c3ccccc3)o2)cc1 [GW572399X]  Percent Control             %            100
3  Cl.O=S1CCN(Cc2ccc(-c3ccc4ncnc(Nc5ccc(OCc6ccccc6)c(F)c5)c4c3)o2)CC1 [GW576924A]  Percent Control             %            100

IN: GET /values?readout=Percent Control&item= COc1cc2ncn(-c3cc(O[C@H](C)c4ccccc4Cl)c(C(N)=O)s3)c2cc1OC [GSK237701A]
OUT: 100

###

Test system: PRKCQ
Condition Notes: Compound Concentration (nM):1000
Outcome Measure: Percent Control (%)
Dear colleague, please return just the value in %, with no unit written.

These solved cases illustrate the format of a correct answer.
                                   compound  measured_on  outcome_measure  result_units  result_number
0  COc1cc2ncn(-c3cc(O[C@H](C)c4ccccc4Cl)c(C(N)=O)s3)c2cc1OC [GSK237701A]        PRKCQ  Percent Control             %            100
1  CC1=C(C(=O)Nc2ccc3[nH]ncc3c2)C(c2ccc3ccccc3c2)CC(=O)N1 (centres unmarked) [GSK270822A]        PRKCQ  Percent Control             %             82
2  Cc1cc(O)cc(C)c1/C=C/c1cncc(C(N)=O)c1 [GW435821X]        PRKCQ  Percent Control             %             90
3  COc1cc(C)c(N(C)C(=O)CN(C)C)cc1Nc1nc(Nc2cccc(F)c2C(N)=O)c2cc[nH]c2n1        PRKCQ  Percent Control             %             92
4  NS(=O)(=O)c1ccc(N/N=C2\C(=O)Nc3ccc(C(=O)NCCc4c[nH]cn4)cc32)cc1 [GW300660X]        PRKCQ  Percent Control             %            100
5  CN1CCN(C(=O)c2ccc(NC(=O)Nc3ccc(N(C)c4ccnc(Nc5ccc(CS(C)(=O)=O)cc5)n4)cc3)cc2)CC1.Cl [GW830263A]        PRKCQ  Percent Control             %             51
6  COc1ccc2[nH]c3c4[nH]c5ccc(OC)cc5c4c4c(c3c2c1)C(=O)NC4=O [GW296115X]        PRKCQ  Percent Control             %             44

IN: GET /values?readout=Percent Control&item= CCS(=O)(=O)c1ccc(OC)c(Nc2ncc(-c3cccc(F)c3)o2)c1 [GW621970X]
OUT: 100

###

Tested on: KIT(V559D,V654A)
Condition Notes: Compound Concentration (nM):1000
Sorting guide: entries reporting Percent Control beneath 90% go in the True pile, the rest go in the False pile.

                                   molecule  class
0  COc1cccc(-n2ncc3c(N/N=C/c4ccncc4)ncnc32)c1 [GW784752X]  False
1  COc1cc(/C=N/Nc2ncnc3[nH]ncc23)ccc1O [GW578748X]   True

IN: Record CN(C)CCNC(=O)Nc1ccc(N(C)c2ccnc(Nc3ccc(CS(C)(=O)=O)cc3)n2)cc1.Cl [GW830900A] : is its Percent Control strictly below 90%?
OUT: True

IN: Record O=C1Nc2ccc(C(=O)c3ccco3)cc2C1=Cc1cc(Cl)c(O)c(Cl)c1 [GW406108X] : is its Percent Control strictly below 90%?
OUT: False

IN: Record CC(C)COC(=O)c1ccc2c(c1)/C(=C/Nc1ccc(S(N)(=O)=O)cc1)C(=O)N2 [GW416981X] : is its Percent Control strictly below 90%?
OUT: False

IN: Record Nc1ncnc2occ(-c3ccc(NC(=O)Nc4cc(C(F)(F)F)ccc4F)cc3)c12 [GW770249X] : is its Percent Control strictly below 90%?
OUT: True

IN: Record Cc1cc(O)cc(C)c1/C=C/c1cncc(C(N)=O)c1 [GW435821X] : is its Percent Control strictly below 90%?
OUT: False

IN: Record COc1cc(C)c(N(C)C(=O)CN(C)C)cc1Nc1nc(Nc2cccc(F)c2C(N)=O)c2cc[nH]c2n1 : is its Percent Control strictly below 90%?
OUT: False

IN: Record CN(C)c1cc2c(Nc3ccc4c(cnn4Cc4ccccc4)c3)ncnc2cn1 [GW282974X] : is its Percent Control strictly below 90%?
OUT: False

IN: Record Cl.c1ccc(Cc2nc3ccc(Nc4ncnc5ccccc45)cc3[nH]2)cc1 [GR269666A] : is its Percent Control strictly below 90%?
OUT: True

IN: Record COc1cccc(-c2c[nH]c3c(N/N=C/c4ccncc4)ncnc23)c1 [GW814408X] : is its Percent Control strictly below 90%?
OUT: True

IN: Record COc1ccc(COc2ccc(Cc3cnc(N)nc3N)cc2OC)cc1 [GW632580X] : is its Percent Control strictly below 90%?
OUT: False

IN: Record CN1CCN(C(=O)c2ccc(NC(=O)Nc3ccc(N(C)c4ccnc(Nc5ccc(CS(C)(=O)=O)cc5)n4)cc3)cc2)CC1.Cl [GW830263A] : is its Percent Control strictly below 90%?
OUT: True

IN: Record CC1=C(C(=O)Nc2ccc3[nH]ncc3c2)C(c2ccc(Cl)c(Cl)c2)CC(=O)N1 (stereo not shown) [GSK299115A] : is its Percent Control strictly below 90%?
OUT: False

IN: Record COc1ccccc1-c1cc(/C=C2\C(=O)Nc3ncc(Br)cc32)cc(Br)c1O [GW442130X] : is its Percent Control strictly below 90%?
OUT: True
